- assay target: UniProt P18031
- Sequence (P18031 whole entry): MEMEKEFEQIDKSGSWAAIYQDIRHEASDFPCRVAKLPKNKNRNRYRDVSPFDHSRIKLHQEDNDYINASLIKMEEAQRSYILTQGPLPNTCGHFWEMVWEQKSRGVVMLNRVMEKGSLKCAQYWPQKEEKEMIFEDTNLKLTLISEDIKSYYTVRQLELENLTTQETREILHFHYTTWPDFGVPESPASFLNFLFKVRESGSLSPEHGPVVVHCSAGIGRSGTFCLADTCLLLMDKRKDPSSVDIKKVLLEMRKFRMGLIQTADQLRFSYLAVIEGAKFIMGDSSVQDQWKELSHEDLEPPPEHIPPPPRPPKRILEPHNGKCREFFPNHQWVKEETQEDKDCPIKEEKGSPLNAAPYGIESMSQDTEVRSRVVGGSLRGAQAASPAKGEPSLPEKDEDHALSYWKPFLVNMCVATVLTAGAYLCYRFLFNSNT
experimental readout: IC50 (µM)
Numbers only, in µM.

In plain terms, O=C(/C=C/c1ccc(O)c2c1[C@H](C(=O)O[C@H](Cc1ccc(O)c(O)c1)C(=O)O)[C@@H](c1ccc(O)c(O)c1)O2)O[C@H](Cc1ccc(O)c(O)c1)C(=O)O [salvianolic acid B] has a documented IC50 of 23.3
